# EC50 annotations
# target-entity: T1, human CD47 protein on CHO-K1-CD47 cells (human, UniProt Q08722 19-323)
# T1 construct: whole, on cells; also called CHO-K1 cells expressing human CD47 protein
# test-summary: cell binding, CHO-K1-CD47 cells, high content imaging

>  <binder>
hz3F10-6.1 (antibody, human IgG4 S228P, kappa, V domains shown, humanized 3F10, full-length heavy and light chains) VH: QVQLVQSGAEVKKPGSSVKVSCKASGYTFSRYWIEWVRQAPGQGLEWMGEFIPGSDTTNYAQKFQGRVTITADISTSTAYMELSSLRSEDTAVYYCARGGLRRMDYWGQGTLVTVSS VL: DIQMTQSPSSLSASVGDRVTITCRASSSVSSTYLHWYQQKPGKAPKLWIYTTSTLASGVPSRFSGSGSGTSYTLTISSLQPEDFATYYCQQFSESTWTFGQGTKLEIKR

>  <EC50 [µg/mL]>
1.18

$$$$
>  <binder>
hz3F10-3.1 (antibody, human IgG4 S228P, kappa, V domains shown, humanized 3F10, full-length heavy and light chains) VH: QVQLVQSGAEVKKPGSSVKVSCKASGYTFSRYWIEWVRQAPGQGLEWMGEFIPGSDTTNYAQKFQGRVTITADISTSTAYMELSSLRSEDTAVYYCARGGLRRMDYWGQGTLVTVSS VL: DIQMTQSPSSLSASVGDRVTITCRASSSVSSTYLHWYQQKPGKAPKLLIYTTSTLASGVPSRFSGSGSGTSYTLTISSLQPEDFATYYCQQFSDSTWTFGQGTKLEIKR

>  <EC50 [µg/mL]>
1.12

$$$$
>  <binder>
hz3F10-4.1 (antibody, human IgG4 S228P, kappa, V domains shown, humanized 3F10, full-length heavy and light chains) VH: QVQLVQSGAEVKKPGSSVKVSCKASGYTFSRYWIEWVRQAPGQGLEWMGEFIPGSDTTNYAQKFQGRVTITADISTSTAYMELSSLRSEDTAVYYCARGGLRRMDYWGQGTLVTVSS VL: DIQMTQSPSSLSASVGDRVTITCRASSSVSSTYLHWYQQKPGKAPKLLIYTTSTLASGVPSRFSGSGSGTSYTLTISSLQPEDFATYYCQQFSESTWTFGQGTKLEIKR

>  <EC50 [µg/mL]>
1.16

$$$$
>  <binder>
hz3F10-5.2 (antibody, human IgG4 S228P, kappa, V domains shown, humanized 3F10, full-length heavy and light chains) VH: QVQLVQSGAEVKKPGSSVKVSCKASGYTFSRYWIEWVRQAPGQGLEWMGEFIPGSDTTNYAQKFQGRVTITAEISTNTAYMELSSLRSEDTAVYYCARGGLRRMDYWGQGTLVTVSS VL: DIQMTQSPSSLSASVGDRVTITCRASSSVSSTYLHWYQQKPGKAPKLWIYTTSTLASGVPSRFSGSGSGTSYTLTISSLQPEDFATYYCQQFSDSTWTFGQGTKLEIKR

>  <EC50 [µg/mL]>
1.26

$$$$

All values here come from patent US20240294635A1.
